The measurements presented in this section are drawn from ChEMBL document CHEMBL1201862.

- System: Escherichia coli
- assay_name: microbe, parasite or virus in culture
The source made the active and inactive calls.
quantity_measured: AC50

Look up AC50 for the entries below, preserving their order.
1. COc1ccc(CCNCC(O)COc2c(C)cccc2C)cc1OC (centres undefined)
2. CCOC(=O)CNC(=O)c1ccccc1
3. O=C(Nc1ccc(-c2nc3ncccc3o2)cc1)c1ccco1
4. Cc1nc(NC(=O)/C=C/c2ccccc2)sc1C(=O)N(C)C

Reply text:
> 150 µM (inactive)
21 µM (active)
30.5 µM (active)
43.6 µM (active)

---

- measured_target: Kappa-type opioid receptor (Homo sapiens, UniProt P41145)
- Sequence (P41145 whole entry): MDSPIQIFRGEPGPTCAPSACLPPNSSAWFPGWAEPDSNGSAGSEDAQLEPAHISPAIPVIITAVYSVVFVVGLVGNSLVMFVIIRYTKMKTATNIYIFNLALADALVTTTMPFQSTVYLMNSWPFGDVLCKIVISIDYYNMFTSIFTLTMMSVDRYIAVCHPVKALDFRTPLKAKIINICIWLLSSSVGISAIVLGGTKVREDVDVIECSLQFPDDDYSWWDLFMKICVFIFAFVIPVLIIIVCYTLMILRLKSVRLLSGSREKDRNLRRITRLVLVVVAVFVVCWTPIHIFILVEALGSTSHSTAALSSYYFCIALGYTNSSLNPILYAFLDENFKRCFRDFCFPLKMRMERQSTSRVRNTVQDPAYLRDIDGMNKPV
- Type: functional
pIC50: −log10 of the molar value.
quantity_measured: pIC50

Inquiry: For the compound COc1ccc(/C=C2\SC(=N)N(c3nccs3)C2=O)cc1OC , what pIC50 is on record?
Reply text: < 4.49

---

- measured_target: UniProtKB P05177
- Sequence (P05177 whole entry): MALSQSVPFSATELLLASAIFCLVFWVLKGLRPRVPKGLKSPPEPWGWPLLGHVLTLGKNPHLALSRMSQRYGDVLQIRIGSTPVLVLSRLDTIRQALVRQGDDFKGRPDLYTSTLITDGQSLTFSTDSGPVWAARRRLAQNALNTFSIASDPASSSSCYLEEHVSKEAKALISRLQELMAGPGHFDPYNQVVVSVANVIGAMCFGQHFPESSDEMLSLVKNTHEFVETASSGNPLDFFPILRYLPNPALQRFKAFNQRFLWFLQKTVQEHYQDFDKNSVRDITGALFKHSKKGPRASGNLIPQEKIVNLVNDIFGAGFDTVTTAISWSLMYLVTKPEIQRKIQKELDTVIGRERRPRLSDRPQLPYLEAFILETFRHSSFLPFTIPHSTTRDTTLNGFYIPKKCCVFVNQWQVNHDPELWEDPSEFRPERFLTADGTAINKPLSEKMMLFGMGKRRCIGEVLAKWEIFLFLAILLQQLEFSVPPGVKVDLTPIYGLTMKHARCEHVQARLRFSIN
Can you tell me AC50 for the items I'm about to list?

Illustrative cases are given below, each with its answer.
[
  {
    "molecule": "COCC(=O)N1CCC[C@@]2(CCN(C(c3ccccc3)c3ccccc3)C2)C1",
    "AC50": "12.6 µM (inconclusive)"
  },
  {
    "molecule": "CC(C)CCN1C(=O)c2ccc(-c3nc4ccccc4c(=O)o3)cc2C1=O",
    "AC50": "15.8 µM (inconclusive)"
  }
]

Look up AC50 for the entries below, preserving their order.
1. O=C(Cc1ccccc1)Nc1ccccc1N1CCOCC1
2. CCOC(=O)CC(Nc1nc(N2CCOCC2)nc(N2CCOCC2)n1)c1ccccc1Cl (stereo unspecified)
3. CC(=O)c1c(O)c(C)c(O)c(Cc2c(O)c3c(c(C(=O)/C=C\c4ccccc4)c2O)OC(C)(C)C=C3)c1O

Reply text:
["6.31 µM (inconclusive)", "10 µM (inconclusive)", "31.6 µM (inconclusive)"]

Look up AC50 for the entries below, preserving their order.
1. Cc1cc(Cl)ccc1OCCCC(=O)N1CCN(C)CC1
2. Cn1c(-c2ccc(F)cc2)cnc1NCc1ccc(F)cc1
3. Cc1cc(=O)c2ccccc2[nH]1
4. c1ccc(-c2cccc(N3CC4(CCNCC4)C3)c2)cc1

Reply text:
["15.8 µM (inconclusive)", "8.91 µM (inconclusive)", "25.1 µM (inconclusive)", "12.6 µM (inconclusive)"]

Look up AC50 for the entries below, preserving their order.
1. CCN1CCc2nc(NC(=O)c3ccc4c(c3)OCCO4)sc2C1
2. CNc1cnn(-c2ccccc2)c(=O)c1Cl

Reply text:
1: 3.16 µM (inconclusive); 2: 28.2 µM (inconclusive)

---

Can you tell me AC50 for the items I'm about to list?
- System: INS1
- assay_name: INS-1E survival protection against cytokine death – cell-based, luminescence, retest, dose response (AID 449756);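 note: cell death triggered by IL-1 beta plus TNF-alpha plus IFN-gamma mixture; protective hits raise ATP signal compared with cytokine alone wells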
- Format: functional
- settings: Rattus norvegicus
The source made the active and inactive calls.

Illustrative cases are given below, each with its answer.
[
  {
    "smiles_representation": "CCN(CC)S(=O)(=O)c1cc(NC(=O)CNc2cccc(S(=O)(=O)N3CCCC3)c2)ccc1C",
    "value_measured": "5.23 µM (active)"
  },
  {
    "smiles_representation": "CCc1ccc(C(=O)NNc2cc(Cl)ccc2Cl)cc1",
    "value_measured": "6.64 µM (active)"
  },
  {
    "smiles_representation": "C/C(=N\\Nc1nc(C)cc(-c2ccccc2)n1)c1ccc(O)cc1",
    "value_measured": "0.993 µM (active)"
  },
  {
    "smiles_representation": "CC[n+]1ccc(/C=C/c2c[nH]c3ccccc23)cc1",
    "value_measured": "5.79 µM (active)"
  },
  {
    "smiles_representation": "CC(=O)Nc1sc2c(c1-c1nc3ccccc3s1)CCN(C(C)C)C2",
    "value_measured": "1.77 µM (active)"
  }
]

Switching to the query record.
Inquiry: For the compound Cc1ccc(Nc2c(-c3ccccn3)nc3cc(C)ccn23)cc1 , what AC50 is on record?
Reply text: 4.81 µM (active)

---

- measured_target: Cytochrome P450 2C19 (Homo sapiens, UniProt P33261)
- Sequence (P33261 whole entry): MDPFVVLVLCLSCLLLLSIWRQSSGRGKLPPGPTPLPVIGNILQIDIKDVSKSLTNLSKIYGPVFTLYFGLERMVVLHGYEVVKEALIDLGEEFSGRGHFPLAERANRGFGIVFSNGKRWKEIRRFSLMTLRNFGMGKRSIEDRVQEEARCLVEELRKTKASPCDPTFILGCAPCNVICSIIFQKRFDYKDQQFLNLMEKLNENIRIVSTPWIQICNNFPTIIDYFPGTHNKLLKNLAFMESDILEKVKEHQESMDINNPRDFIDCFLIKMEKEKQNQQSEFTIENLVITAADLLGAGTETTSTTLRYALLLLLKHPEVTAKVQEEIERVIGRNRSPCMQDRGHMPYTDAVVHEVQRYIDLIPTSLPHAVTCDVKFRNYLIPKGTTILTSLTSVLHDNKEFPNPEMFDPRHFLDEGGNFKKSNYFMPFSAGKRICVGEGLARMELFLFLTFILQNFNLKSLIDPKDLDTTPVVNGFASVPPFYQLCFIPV
- assay_name: Cytochrome panel assay with activity outcomes. Panel member name: p450-cyp2c19 Compounds with AC50 equal or less than 10 uM are considered active
- Type: functional
- settings: read-out: AC50
quantity_measured: AC50

Illustrative cases are given below, each with its answer.
[
  {
    "molecule": "Cc1ccc(C(=O)NNC(=S)NC(=O)c2ccc(Cl)cc2)cc1",
    "AC50": "35.5 µM (inconclusive)"
  },
  {
    "molecule": "COc1c(Cl)cc(Cl)cc1CNCCNCC(C)O (stereo unspecified)",
    "AC50": "14.1 µM (inconclusive)"
  },
  {
    "molecule": "CC(=O)Nc1ccc2c(c1)OCCO2",
    "AC50": "17.8 µM (inconclusive)"
  },
  {
    "molecule": "N#CC(C#N)=Cc1ccc(O)c(O)c1",
    "AC50": "15.8 µM (inconclusive)"
  },
  {
    "molecule": "c1ccc(-n2ncc3c(NCCCN4CCOCC4)ncnc32)cc1",
    "AC50": "15.8 µM (inconclusive)"
  }
]

Switching to the query record.
Inquiry: Form field - read-out: AC50; system: Cytochrome P450 2C19 (Homo sapiens, UniProt P33261); submitted item: CCOC(=O)CN(c1ccccn1)S(=O)(=O)c1ccccc1
Reply text: 31.6 µM (inconclusive)

---

- measured_target: Mitogen-activated protein kinase 10 (Homo sapiens, UniProt P53779)
- Sequence (P53779 whole entry): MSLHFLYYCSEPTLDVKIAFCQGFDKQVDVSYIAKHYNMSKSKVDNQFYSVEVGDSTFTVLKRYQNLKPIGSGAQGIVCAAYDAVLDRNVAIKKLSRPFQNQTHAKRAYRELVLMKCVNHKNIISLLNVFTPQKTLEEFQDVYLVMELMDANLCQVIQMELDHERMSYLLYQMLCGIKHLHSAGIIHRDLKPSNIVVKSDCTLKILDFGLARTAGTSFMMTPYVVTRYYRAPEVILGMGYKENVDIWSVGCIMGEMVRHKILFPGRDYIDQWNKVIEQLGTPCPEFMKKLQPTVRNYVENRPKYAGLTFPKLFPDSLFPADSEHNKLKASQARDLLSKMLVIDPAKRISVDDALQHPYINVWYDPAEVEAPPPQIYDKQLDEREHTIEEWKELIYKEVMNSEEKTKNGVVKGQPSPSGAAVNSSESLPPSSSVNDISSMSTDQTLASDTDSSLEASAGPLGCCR
- assay_name: Dose response biochemical screening assay for inhibitors of c-Jun N-Terminal Kinase 3 (JNK3). [Related pubchem assays: 746 ]
quantity_measured: IC50

Illustrative cases are given below, each with its answer.
[
  {
    "smiles_representation": "Cn1nnnc1SCc1ccc(C(=O)Nc2nccs2)cc1",
    "IC50": "56.9 µM (not active)"
  },
  {
    "smiles_representation": "O=C(CCCn1c(=S)[nH]c2ccccc2c1=O)NCc1ccco1",
    "IC50": "49.2 µM (not active)"
  },
  {
    "smiles_representation": "NC(=O)c1c(NC(=O)Cc2cccs2)sc2c1CCC2",
    "IC50": "28.3 µM (not active)"
  },
  {
    "smiles_representation": "N#CCCSc1ncnc2c1oc1ccccc12",
    "IC50": "27.7 µM (not active)"
  }
]

Inquiry: For the compound CCOC(=O)c1c(C)[nH]c2ccc(O)cc12 , what IC50 is on record?
Reply text: > 93.1 µM (not active)

---

- assay_name: NIH-3T3 fibroblast cytotoxicity, dose response, cytotoxicity control, cell-based, fluorescence, Alamar Blue, secondary assay (AID 2327);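 note: NIH-3T3 mouse fibroblasts cultured with fluconazole at 8 µg/mL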
- Assay type: functional
Calls of active or inactive are those of the source.
Valid outcomes are listed here; reply with one: TRUE for active, FALSE for inactive

[
  {
    "smiles_representation": "CC(=O)Nc1ncnc2c1c(-c1ccc(Cl)cc1)nn2C(C)(C)C",
    "assigned_class": "TRUE"
  },
  {
    "smiles_representation": "O=C(O)c1ccc(-c2nc(-c3ccc(Cl)c(Cl)c3)cs2)cc1",
    "assigned_class": "FALSE"
  },
  {
    "smiles_representation": "CCCc1nnc(N=C(S)Nc2ccccc2)s1",
    "assigned_class": "FALSE"
  },
  {
    "smiles_representation": "Cc1nc2ccccc2cc1OCc1ccc(F)cc1",
    "assigned_class": "FALSE"
  },
  {
    "smiles_representation": "O=c1[nH]n2c(C(F)(F)F)cc(C3CC3)nc2c1N=Nc1ccccc1",
    "assigned_class": "FALSE"
  }
]

Field: next compound
Inquiry: Would you mind telling me which call this test gave COc1cc2ccccc2cc1C(=O)NNC(=O)c1ccccc1O ?
Reply text: FALSE

---

Can you tell me IC50 for the items I'm about to list?
- measured_target: Rac GTPase-activating protein 1 (Homo sapiens)
- Sequence (Q9H0H5 whole entry): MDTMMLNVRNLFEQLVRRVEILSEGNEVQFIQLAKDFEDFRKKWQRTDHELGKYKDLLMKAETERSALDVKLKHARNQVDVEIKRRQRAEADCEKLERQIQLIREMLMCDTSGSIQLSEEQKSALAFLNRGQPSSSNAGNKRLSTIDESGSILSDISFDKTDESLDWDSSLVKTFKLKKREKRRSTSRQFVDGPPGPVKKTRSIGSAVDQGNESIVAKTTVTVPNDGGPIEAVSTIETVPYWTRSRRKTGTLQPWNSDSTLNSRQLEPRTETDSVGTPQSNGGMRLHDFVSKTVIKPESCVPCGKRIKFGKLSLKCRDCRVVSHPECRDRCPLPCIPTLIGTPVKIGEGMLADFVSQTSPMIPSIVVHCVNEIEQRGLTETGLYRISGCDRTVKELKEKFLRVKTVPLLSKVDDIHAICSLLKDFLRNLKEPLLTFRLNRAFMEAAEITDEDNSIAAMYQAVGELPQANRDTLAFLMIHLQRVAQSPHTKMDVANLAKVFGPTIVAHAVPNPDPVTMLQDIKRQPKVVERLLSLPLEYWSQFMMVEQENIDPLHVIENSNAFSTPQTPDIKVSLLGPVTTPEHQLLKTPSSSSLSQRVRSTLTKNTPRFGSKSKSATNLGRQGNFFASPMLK
- assay_name: blockers of MgcRacGAP-driven Rac1 GTP hydrolysis – biochemical, ADP Hunter fluorescence, primary and confirmatory, confirmation (AID 624330)
- Assay type: functional
Active and inactive are the calls of the source.

Illustrative cases are given below, each with its answer.
[
  {
    "molecule": "Cc1ccc(Cl)cc1-c1ccc(/C=N/c2ccc(N3CCOCC3)cc2)o1",
    "measured_target": "Rac GTPase-activating protein 1 (Homo sapiens)",
    "IC50": "11.2 µM (active)"
  },
  {
    "molecule": "COc1ccc(CN2CCN(C(=O)CC(C)C)CC2)cc1OC",
    "measured_target": "Rac GTPase-activating protein 1 (Homo sapiens)",
    "IC50": "161 µM (active)"
  },
  {
    "molecule": "Oc1ccc(/C=N/Nc2nn3cnnc3c3ccccc23)cc1",
    "measured_target": "Rac GTPase-activating protein 1 (Homo sapiens)",
    "IC50": "22.2 µM (active)"
  },
  {
    "molecule": "CCN(CC)c1ccc(NC(=O)c2ccc(Br)o2)cc1",
    "measured_target": "Rac GTPase-activating protein 1 (Homo sapiens)",
    "IC50": "25.9 µM (active)"
  }
]

Look up IC50 for the entries below, preserving their order.
1. CC(=O)N(C1=C(Cl)C(=O)c2ccccc2C1=O)c1ccc(C(=O)O)cc1
2. NC(CSS(=O)(=O)O)=NCCC12CC3CC(CC(O)(C3)C1)C2
3. CC(NS(=O)(=O)c1ccc(Cl)cc1)C(=O)OCC(=O)Nc1ccc(N(C)C)cc1 (configuration not stated)
4. COc1ccc(NC2CCCN(C(=O)c3ccc(C)c(N4CCNC4=O)c3)C2)cc1 (configuration not stated)
5. COc1cc(/C=N/NC(=O)c2nc(C)cc(C)n2)ccc1O
6. COc1cc(/C=N/NC(=O)CCn2nnc3ccccc32)ccc1O
7. NSc1nc(N)c2nc(-c3ccccc3)c(-c3ccccc3)nc2n1
8. O=C(N/N=C/c1ccc(N2CCOCC2)s1)c1ccc(O)cc1

Reply text:
["165 µM (active)", "142 µM (active)", "65.1 µM (active)", "129 µM (active)", "35.3 µM (active)", "58.7 µM (active)", "99.2 µM (active)", "23.5 µM (active)"]
